Where do the numbers come from? From ChEMBL document CHEMBL1146731.

- System: Coxsackievirus
- run_description: Inhibitory concentration of compound against formation of Coxsackievirus B3 plaque in plaque reduction assay
- Assay type: functional, organism-based
quantity_name: pIC50
Remember, pIC50 is on a log scale: it is -log10 of the molar concentration.

Challenge: For the compound c1ccc(C(c2ccccc2)N2CCN(c3ncnc4c3cnn4-c3ccccc3)CC2)cc1 , what pIC50 is on record?
Response given: 6.82

###

IC50 for assorted molecules
- System: Echovirus
- run_description: Inhibitory concentration of compound against formation of Echovirus 29 virus plaque in plaque reduction assay
- Assay type: functional, organism-based

# smiles_record, tested_system, quantity_name, data_value
records = [
    ("c1ccc(C(c2ccccc2)N2CCN(c3ncnc4c3cnn4-c3ccccc3)CC2)cc1", "Echovirus", "IC50", "> 25 µM"),
]

Continue with the molecule presented below.
Challenge: For the molecule O=C1N(CCCCCCOc2ccc(Br)cc2)CCN1c1ccncc1 , what IC50 is on record?
Response given: > 25 µM
